Here the recorded pEC50 is given for each entry.
target: Biotin-labeled amyloid-β (Homo sapiens); test: Dose response assay, plate-coated test compounds at 6 concentrations vs biotin-labeled amyloid β; conditions: biotin-labeled amyloid at 1 μM; compounds coated at 6 concentrations
Sequence (P05067 672-711 limits assumed): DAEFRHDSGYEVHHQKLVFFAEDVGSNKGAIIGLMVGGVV
In simple prose, pEC50 is minus the logarithm base ten of a concentration in moles per litre.

| structure.smiles.string | assayed.target | pEC50 |
| --- | --- | --- |
| NCCCCCNC(=O)c1ccccc1Nc1cccc(C(F)(F)F)c1 | Biotin-labeled amyloid-β (Homo sapiens) | 4.45 |

### Prompt // Input: `NCCCCNC(=O)c1ccccc1Nc1cccc(C(F)(F)F)c1` . Output its pEC50 only.
### Response 4.44

### Prompt // Input: `NCCCNC(=O)c1ccccc1Nc1cccc(C(F)(F)F)c1` . Output its pEC50 only.
### Response 4.50

### Prompt // Input: `NCCNC(=O)c1ccccc1Nc1cccc(C(F)(F)F)c1` . Output its pEC50 only.
### Response 4.30
